The following compounds are listed with their measured log10(CC50 at 48 h) values.
# test: Cytotoxicity assay, microtetrazolium test
# Format: cell-based
# protocol-conditions: dog, MDCK cells
Parameter value (number): base-10 log of CC50 at 48 h in µM.

Below, 2 compounds whose answers are already recorded.
CC(N)C1C[C@@H]2CC[C@H]1C2 (stereo partly shown) [Deitiforine, reference compound] | 3.10
CC1(C)[C@H]2CC[C@]1(C)[C@H](OC(=O)C[N+](C)(C)C)C2.[I-] [10a] | 3.12

Incoming: Query (compound): CC(N)C12CC3CC(CC(C3)C1)C2 (stereo not shown) [Rimantadine, reference compound] ; field requested: log10(CC50 at 48 h)
Outgoing: 2.53

Incoming: I am curious: what log10(CC50 at 48 h) value has been reported for CC1(C)[C@H]2CC[C@]1(C)[C@H](OC(=O)CCC[N+](C)(C)C)C2 [10c] ?
Outgoing: 2.42

Incoming: // query log10(CC50 at 48 h) value for entry CC[N+](C)(CC)CCC(=O)O[C@H]1C[C@@H]2CC[C@@]1(C)C2(C)C [11b]
Outgoing: 1.84

Incoming: Return reported log10(CC50 at 48 h); argument: NC12CC3CC(CC(C3)C1)C2 [Amantadine, reference compound]
Outgoing: 2.45

Incoming: Fill in: log10(CC50 at 48 h) of CC[N+](C)(CC)CC(=O)O[C@H]1C[C@@H]2CC[C@@]1(C)C2(C)C.[I-] [11a] is ___
Outgoing: 2.93

====

# System: influenza A virus A/Puerto Rico/8/34 (H1N1) (PR8 (H1N1))
# test: microbe, parasite or virus in culture
# Assay type: cell-based
# protocol-conditions: Influenza A virus, H1N1|PR8, MDCK, read-out: IC50 (50% virus-inhibiting concentration)
pIC50: −log10 of the molar value.
Classify as follows. Reported pIC50 greater than or equal to 4: MET. Reported pIC50 below: NOT MET.

Previously resolved entries follow.
NC12CC3CC(CC(C3)C1)C2 [Amantadine, reference compound] | MET
NC(=O)c1ncn([C@@H]2O[C@H](CO)[C@@H](O)[C@H]2O)n1 [Ribavirin, reference compound] | MET
CC1(C)[C@H]2CC[C@]1(C)[C@H](OC(=O)C[N+](C)(C)C)C2.[I-] [10a] | MET
CC[N+](C)(CC)CC(=O)O[C@H]1C[C@@H]2CC[C@@]1(C)C2(C)C.[I-] [11a] | NOT MET
CC1(C)[C@@H]2CC[C@@]1(C)/C(=N/CCC[N+](C)(C)C)C2.[I-] [compound 7] | NOT MET
CC(N)C12CC3CC(CC(C3)C1)C2 (stereo not drawn) [Rimantadine, reference compound] | MET

We next turn to a different compound, shown below.
Incoming: Could you please find out whether CC1(C)[C@H]2CC[C@]1(C)[C@H](OC(=O)CCC[N+](C)(C)C)C2 [10c] has pIC50 that meets 4 or exceeds it?
Outgoing: NOT MET

====

# test: Cytotoxicity assay, microtetrazolium test
# Format: cell-based
# protocol-conditions: dog, MDCK cells
Reported CC50 at 48 h by item:

Examples from the recorded data:
CC1(C)[C@@H]2CC[C@@]1(C)/C(=N/CCC[N+](C)(C)C)C2.[I-] | > 1990 µM
CC1(C)[C@@H]2CC[C@@]1(C)/C(=N/CC[N+](C)(C)C)C2.[I-] | > 2100 µM

Incoming: Looking for the measured CC50 at 48 h of NC(=O)c1ncn([C@@H]2O[C@H](CO)[C@@H](O)[C@H]2O)n1 [Ribavirin, reference compound] , can you help?
Outgoing: > 2000 µM
